- Tested on: Escherichia coli
- assay-overview: Antibacterial activity against Escherichia coli INSRA5924 isolates expressing CTX-M-32 and TEM-1B enzymes by agar dilution method
- Format: functional
result-type: MIC

Problem: Check the records and state MIC for CO/N=C(\C(=O)N[C@@H]1C(=O)N2C(C(=O)O)=C(COC(N)=O)CS[C@H]12)c1ccco1 [CEFUROXIME]
Result: > 256 µg/mL

Problem: Check the records and state MIC for CC1(C)S[C@@H]2[C@H](NC(=O)C(C(=O)O)c3ccsc3)C(=O)N2[C@H]1C(=O)O (single isomer, unassigned) [TICARCILLIN]
Result: > 4100 µg/mL

Problem: Check the records and state MIC for CC1(C)S[C@@H]2[C@H](NC(=O)[C@H](N)c3ccc(O)cc3)C(=O)N2[C@H]1C(=O)O [AMOXICILLIN]
Result: > 4100 µg/mL

Problem: Check the records and state MIC for CCN1CCN(C(=O)N[C@@H](C(=O)N[C@@H]2C(=O)N3[C@@H]2SC(C)(C)[C@@H]3C(=O)O)c2ccccc2)C(=O)C1=O [PIPERACILLIN]
Result: > 512 µg/mL

====

Please go through the items and note down their MIC.
- System: Escherichia coli
- assay-overview: Antibacterial activity against Escherichia coli DH5 alpha-URA5924 isolates expressing CTX-M-32 by agar dilution method
- Format: functional

Problem: Check the records and state MIC for COc1cc(Cc2cnc(N)nc2N)cc(OC)c1OC
Result: ≤ 0.125 µg/mL

Problem: Check the records and state MIC for CC(=O)OCC1=C(C(=O)O)N2C(=O)[C@@H](NC(=O)Cc3cccs3)[C@H]2SC1
Result: > 1020 µg/mL

Problem: Check the records and state MIC for CO/N=C(\C(=O)N[C@@H]1C(=O)N2C(C(=O)O)=C(COC(N)=O)CS[C@H]12)c1ccco1
Result: > 256 µg/mL

Problem: Check the records and state MIC for CC1(C)S[C@@H]2[C@H](NC(=O)[C@H](N)c3ccc(O)cc3)C(=O)N2[C@H]1C(=O)O
Result: > 4100 µg/mL
